Reference source: ChEMBL document CHEMBL1955858

assayDetails: Selectivity index, ratio of CC50 for human C8166 cells to EC50 for HIV1 3B
Assay type: toxicity, cell-based
protocolConditions: read-out: Ratio CC50/EC50
Each record is given true if its reported selectivity ratio is strictly below 70000. Records at or above 70000 are given false.

Worked examples, 2 compounds total:
CC(C)CN(C[C@@H](O)[C@H](Cc1ccc(-c2cccnc2)cc1)NC(=O)O[C@H]1CCOC1)S(=O)(=O)c1ccc(N)cc1 false
CC(C)CN(C[C@@H](O)[C@H](Cc1ccccc1)NC(=O)O[C@H]1CCOC1)S(=O)(=O)c1ccc(N)cc1 false

selectivity ratio strictly < 70000 for this compound? COc1ccc(S(=O)(=O)N(CC(C)C)C[C@@H](O)[C@H](Cc2ccc(-c3ccncc3)cc2)NC(=O)O[C@H]2CCOC2)cc1
false

Quick check: selectivity ratio of COc1ccc(S(=O)(=O)N(CC(C)C)C[C@@H](O)[C@H](Cc2ccc(-c3ccsc3)cc2)NC(=O)O[C@H]2CCOC2)cc1 under 70000?
true

Input COc1ccc(S(=O)(=O)N(CC(C)C)C[C@@H](O)[C@H](Cc2ccc(-c3cccc(O)c3)cc2)NC(=O)O[C@H]2CCOC2)cc1 ; condition: selectivity ratio strictly below 70000. Does it hold?
true

* * *

assayDetails: Cytostatic activity against human C8166 cells by MTT assay
Type: cell-based
measurementLabel: CC50 (µM)
Report as a plain number; the unit µM is understood.

CC(C)CN(C[C@@H](O)[C@H](Cc1ccc(-c2ccccc2)cc1)NC(=O)O[C@H]1CCOC1)S(=O)(=O)c1ccc(N)cc1 32

Output CC50 of COc1ccc(S(=O)(=O)N(CC(C)C)C[C@@H](O)[C@H](Cc2ccc(-c3cccc(C#N)c3)cc2)NC(=O)O[C@H]2CCOC2)cc1
320

Dear colleague, please send me the reported CC50 for COc1ccc(S(=O)(=O)N(CC(C)C)C[C@@H](O)[C@H](Cc2ccc(-c3ccncc3)cc2)NC(=O)O[C@H]2CCOC2)cc1 when you can.
260

Provide CC50 value for the following compound: COC(=O)c1cccc(-c2ccc(C[C@H](NC(=O)O[C@H]3CCOC3)[C@H](O)CN(CC(C)C)S(=O)(=O)c3ccc(OC)cc3)cc2)c1
190

Complete the entry with CC50 for COc1ccc(S(=O)(=O)N(CC(C)C)C[C@@H](O)[C@H](Cc2ccc(-c3ccc(F)cc3)cc2)NC(=O)O[C@H]2CCOC2)cc1
140

Provide only the value of recorded CC50 for COc1ccc(S(=O)(=O)N(CC(C)C)C[C@@H](O)[C@H](Cc2ccc(-c3ccc(OC(F)(F)F)cc3)cc2)NC(=O)O[C@H]2CCOC2)cc1
170

Provide CC50 value for the following compound: COc1ccc(S(=O)(=O)N(CC(C)C)C[C@@H](O)[C@H](Cc2ccc(-c3ccc(Cl)cc3)cc2)NC(=O)O[C@H]2CCOC2)cc1
230

* * *

assayDetails: Cytostatic activity against human C8166 cells by MTT assay
Assay type: cell-based
# CC50 values compiled below
Answer in µM, number only, no unit symbol.

# annotated cases, reported CC50 shown
molecule	CC50, µM
COc1ccc(S(=O)(=O)N(CC(C)C)C[C@@H](O)[C@H](Cc2ccc(-c3cccnc3)cc2)NC(=O)O[C@H]2CCOC2)cc1	210
COc1ccc(S(=O)(=O)N(CC(C)C)C[C@@H](O)[C@H](Cc2ccc(-c3ccc(SC)cc3)cc2)NC(=O)O[C@H]2CCOC2)cc1	240

Return CC50 for the following molecule: COc1ccc(S(=O)(=O)N(CC(C)C)C[C@@H](O)[C@H](Cc2ccc(-c3ccc(C(=O)O)cc3)cc2)NC(=O)O[C@H]2CCOC2)cc1
140

Quick one: give measured CC50 for COc1ccc(S(=O)(=O)N(CC(C)C)C[C@@H](O)[C@H](Cc2ccc(-c3ccsc3)cc2)NC(=O)O[C@H]2CCOC2)cc1
160

Return the recorded CC50 value; entry: COc1ccc(S(=O)(=O)N(CC(C)C)C[C@@H](O)[C@H](Cc2ccc(-c3cccc(O)c3)cc2)NC(=O)O[C@H]2CCOC2)cc1
41

Output CC50 of CC(C)CN(C[C@@H](O)[C@H](Cc1ccc(-c2cccnc2)cc1)NC(=O)O[C@H]1CCOC1)S(=O)(=O)c1ccc(N)cc1
200

Given the molecule CC(C)CN(C[C@@H](O)[C@H](Cc1ccccc1)NC(=O)O[C@H]1CCOC1)S(=O)(=O)c1ccc(N)cc1 [AMPRENAVIR] , write its reported CC50.
230
